Target: Human eIF4E (aa 28-217) / biotin labeled 4G2 peptide (Homo sapiens (Human))
Test: Human eIF4E/4G2 binding assay (TR-FRET)
Settings: Human eIF4E/4G2 TR-FRET binding assay; head says IC50, legend says EC50
pIC50: −log10 of the molar value.
measured-endpoint: pIC50

Observe how each entry below is paired with its result.
In [3]: df
Out[3]:
                                   compound  measured_endpoint        result
0  COc1ccc(-c2nc(Nc3ncc(-c4cccs4)cc3C(=O)O)sc2C(C)C)cc1Cl              pIC50        ≥ 6.00
1  CC(C)Cc1sc(Nc2ccncc2C(=O)O)nc1-c1ccc(Cl)c(Cl)c1              pIC50  5.00 to 6.00

# input For the record CC(C)c1sc(NCC(Cc2cccc3c2OCO3)C(=O)O)nc1-c1ccc(Cl)cc1 (stereo not drawn) , what value of pIC50 is listed for Human eIF4E (aa 28-217) / biotin labeled 4G2 peptide (Homo sapiens (Human))?
# output 5.00 to 6.00

# input For the record COc1cccc(-c2cnc(Nc3nc(-c4ccc(Cl)c(Cl)c4)c(C(C)C)s3)c(C(=O)O)c2)c1 , what value of pIC50 is listed for Human eIF4E (aa 28-217) / biotin labeled 4G2 peptide (Homo sapiens (Human))?
# output ≥ 6.00

----------
Target: Human eIF4E (aa 28-217) / biotin labeled 4G2 peptide (Homo sapiens (Human))
Assay: Human eIF4E/4G2 binding assay (TR-FRET)
Details: Human eIF4E/4G2 TR-FRET binding assay; head says IC50, legend says EC50
measured-endpoint: IC50

Observe how each entry below is paired with its result.
In [3]: df
Out[3]:
                                   molecule  measured_endpoint            result
0  CC(C)c1sc(Nc2c(C(=O)O)sc3ccccc23)nc1-c1ccc(Cl)c(Cl)c1               IC50         ≤ 1000 nM
1  COc1cc(CC(CNc2nc(-c3ccc(Cl)c(Cl)c3)c(CC(C)C)s2)C(=O)O)ccn1 (centres unmarked)               IC50  1000 to 10000 nM
2  CSc1cccc(CC(CNc2nc(-c3ccc(Cl)c(Cl)c3)c(CC(C)C)s2)C(=O)O)c1 (centres unmarked)               IC50         ≤ 1000 nM

# input Fill in: IC50 of CC(C)Cc1sc(N(CCC(=O)O)CC2CCN(C)CC2)nc1-c1ccc(Cl)c(Cl)c1 is ___
# output > 10000 nM

# input Fill in: IC50 of CC(C)Cc1sc(NCc2cccnc2O)nc1-c1ccc(Cl)c(Cl)c1 is ___
# output > 10000 nM

----------
The entries below are paired with their reported pIC50.
Molecular target: Human eIF4E (aa 28-217) / biotin labeled 4G2 peptide (Homo sapiens (Human), UniProt P06730)
Sequence (P06730 28-217): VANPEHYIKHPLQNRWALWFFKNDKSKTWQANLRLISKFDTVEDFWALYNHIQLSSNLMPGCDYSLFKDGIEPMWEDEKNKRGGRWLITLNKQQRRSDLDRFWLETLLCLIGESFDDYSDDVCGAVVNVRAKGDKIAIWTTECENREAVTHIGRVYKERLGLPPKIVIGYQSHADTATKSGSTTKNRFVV
Assay: Human eIF4E/4G2 binding assay (TR-FRET)
Details: Human eIF4E/4G2 TR-FRET binding assay; head says IC50, legend says EC50
pIC50: −log10 of the molar value.

# input Fill in: pIC50 of CC(C)Cc1sc(Nc2ccc(F)c(C(=O)O)c2)nc1-c1ccc(Cl)c(Cl)c1 is ___
# output ≥ 6.00
